# credit: ChEMBL document CHEMBL1146654

Target: Cyclin-dependent kinase 1/cyclin B (Homo sapiens, UniProt P06493)
Experiment: Inhibition of Cyclin-dependent kinase 1-cyclin B
Type: protein-complex assay
METRIC: IC50 (nM)

[P] O=C1NC(=O)C(c2cn(CCCO)c3ncccc23)=C1c1ncc(C(F)(F)F)cc1Cl
[Q] COc1ccccc1C1=C(c2cn(CCCNC(=O)OC(C)(C)C)c3ncccc23)C(=O)NC1=O
[R] COCCCn1cc(C2=C(c3ccccc3O)C(=O)NC2=O)c2cccnc21
Prompt: # rank_down: sort by IC50, max first Answer with the labels in sequence, matching the requested order.
Response: P, R, Q
(P: 5800 nM, R: 700 nM, Q: 170 nM)
